Reference for the values: patent EP0454444A1

- Tested on: rice (Oryza sativa)
- Protocol summary: Herbicidal effect test by soil treatment
- Format: in vivo
- Applied conditions: crop plant, application amount 0.8 g/a, three weeks after spraying
Readout type: herbicidal effect, R (Oryza sativa)

The reported herbicidal effect, R (Oryza sativa) of the compound C#CCN1C(=O)COc2cc(F)c(N3C(=O)CC(C)CC3=O)cc21 was 3 (Growth control rates of 40 to 70%)

// field: herbicidal effect, R (Oryza sativa); key: C#CCN1C(=O)COc2ccc(N3C(=O)CC(C(F)(F)F)CC3=O)cc21 ; value = 4 (Growth control rates of 70 to 90%)

Entry O=C1COc2cc(F)c(N3C(=O)CC(C(F)(F)F)CC3=O)cc2N1Cc1ccccc1 — recorded herbicidal effect, R (Oryza sativa) = 3 (Growth control rates of 40 to 70%)

###

Parameter: herbicidal effect, W (Triticum vulgare). Scope: all listed entries.
- Tested on: wheat (Triticum aestivum)
- Protocol summary: Herbicidal effect test by soil treatment
- Format: in vivo
- Applied conditions: crop plant, application amount 0.4 g/a, three weeks after spraying

{"columns": ["Compound", "herbicidal effect, W (Triticum vulgare)"],
 "data": [
  ["C#CCN1C(=O)COc2cc(F)c(N3C(=O)CC(C)CC3=O)cc21", "4 (Growth control rates of 70 to 90%)"],
  ["O=C1COc2cc(F)c(N3C(=O)CC(C(F)(F)F)CC3=O)cc2N1Cc1ccccc1", "2 (Growth control rates of 20 to 40%)"],
  ["CC(C)OC(=O)c1cc(N2C(=O)CC(C(F)(F)F)C(C)C2=O)c(F)cc1Cl (centres unmarked)", "2 (Growth control rates of 20 to 40%)"]
]}

// below: herbicidal effect, W (Triticum vulgare) requested for another compound
Note to self: herbicidal effect, W (Triticum vulgare) recorded for C#CCN1C(=O)COc2cc(F)c(N3C(=O)CC(C(F)(F)F)CC3=O)cc21 was 4 (Growth control rates of 70 to 90%)

###

- System: corn (Zea mays)
- Protocol summary: Herbicidal effect test by soil treatment
- Type: in vivo
- Applied conditions: crop plant, application amount 1.6 g/a, three weeks after spraying
As shown below, each of these molecules has a reported herbicidal effect, T (Zea mays) value.

{"columns": ["Molecule", "Obs value"],
 "data": [
  ["O=C1COc2cc(F)c(N3C(=O)CC(C(F)(F)F)CC3=O)cc2N1Cc1ccccc1 [1-27]", "4 (Growth control rates of 70 to 90%)"]
]}

molecule CC(C)OC(=O)c1cc(N2C(=O)CC(C(F)(F)F)C(C)C2=O)c(F)cc1Cl (stereo not drawn) [1-3] , herbicidal effect, T (Zea mays) observed: 4 (Growth control rates of 70 to 90%)

Record C#CCN1C(=O)COc2ccc(N3C(=O)CC(C(F)(F)F)CC3=O)cc21 [1-24] , field herbicidal effect, T (Zea mays): 4 (Growth control rates of 70 to 90%)

###

- Tested on: rice (Oryza sativa)
- Protocol summary: Herbicidal effect test by soil treatment
- Type: in vivo
- Applied conditions: crop plant, application amount 0.4 g/a, three weeks after spraying
A collection of compounds and their measured herbicidal effect, R (Oryza sativa)

Some solved entries appear below for comparison.
{"columns": ["Compound", "System name", "herbicidal effect, R (Oryza sativa)"],
 "data": [
  ["C#CCN1C(=O)COc2ccc(N3C(=O)CC(C(F)(F)F)CC3=O)cc21 [1-24]", "rice (Oryza sativa)", "1 (Growth control rates of 5 to 20%)"],
  ["O=C1COc2cc(F)c(N3C(=O)CC(C(F)(F)F)CC3=O)cc2N1Cc1ccccc1 [1-27]", "rice (Oryza sativa)", "2 (Growth control rates of 20 to 40%)"],
  ["CC(C)OC(=O)c1cc(N2C(=O)CC(C(F)(F)F)C(C)C2=O)c(F)cc1Cl (centres unmarked) [1-3]", "rice (Oryza sativa)", "4 (Growth control rates of 70 to 90%)"]
]}

Now, please, on to the next compound.
Considering C#CCN1C(=O)COc2cc(F)c(N3C(=O)CC(C)CC3=O)cc21 [1-23] , its herbicidal effect, R (Oryza sativa) with rice (Oryza sativa) was recorded as 2 (Growth control rates of 20 to 40%)

###

- System: corn (Zea mays)
- Protocol summary: Herbicidal effect test by soil treatment
- Type: in vivo
- Applied conditions: crop plant, application amount 0.4 g/a, three weeks after spraying
Readout type: herbicidal effect, T (Zea mays)

Known results for compounds:
{"columns": ["Compound", "System name", "herbicidal effect, T (Zea mays)"],
 "data": [
  ["C#CCN1C(=O)COc2cc(F)c(N3C(=O)CC(C(F)(F)F)CC3=O)cc21 [1-26]", "corn (Zea mays)", "4 (Growth control rates of 70 to 90%)"],
  ["CC(C)OC(=O)c1cc(N2C(=O)CC(C(F)(F)F)C(C)C2=O)c(F)cc1Cl (centres unmarked) [1-3]", "corn (Zea mays)", "2 (Growth control rates of 20 to 40%)"]
]}

Please examine the following record next.
So, C#CCN1C(=O)COc2cc(F)c(N3C(=O)CC(C)CC3=O)cc21 [1-23] ? Its herbicidal effect, T (Zea mays) was 4 (Growth control rates of 70 to 90%)

###

- System: wheat (Triticum aestivum)
- Protocol summary: Herbicidal effect test by soil treatment
- Format: in vivo
- Applied conditions: crop plant, application amount 1.6 g/a, three weeks after spraying
- Text: In a plastic box of 15 cm length, 22 cm width and 6 cm depth, there was placed a sterilized dilvial soil, and seeds of barnyardgrass (Echinochloa crusgalli), large crabgrass (Digitaria adscendens), annual sedge (Cyperus microiria), black nightshade (Solanum nigrum L.), hairly galinosoga (Galinsoga ciliat), rorippa ssp. (Rorippa atrovirens), rice (Oryza sativa), corn (Zea mays), wheat (Triticum aestivum), soybean (Glysine max) and cotton (Gossypium herbaceum) were sown mixedly. […]
Readout type: herbicidal effect, W (Triticum vulgare)

{"columns": ["Structure string", "Obs value"],
 "data": [
  ["CCOC(=O)Nc1cc(N2C(=O)CC(C(F)(F)F)CC2=O)c(F)cc1Cl", "1 (Growth control rates of 5 to 20%)"]
]}

Proceeding to the next compound to report its herbicidal effect, W (Triticum vulgare).
Documented herbicidal effect, W (Triticum vulgare) of C#CCN1C(=O)COc2ccc(N3C(=O)CC(C(F)(F)F)CC3=O)cc21 : 4 (Growth control rates of 70 to 90%)

###

- Test system: cotton (Gossypium herbaceum)
- Protocol summary: Herbicidal effect test by soil treatment
- Assay type: in vivo
- Applied conditions: crop plant, application amount 1.6 g/a, three weeks after spraying
Readout type: herbicidal effect, C (Gossypium herbaceum)

{"columns": ["Compound", "Obs value"],
 "data": [
  ["C#CCN1C(=O)COc2cc(F)c(N3C(=O)CC(C)CC3=O)cc21", "4 (Growth control rates of 70 to 90%)"],
  ["O=C1COc2cc(F)c(N3C(=O)CC(C(F)(F)F)CC3=O)cc2N1Cc1ccccc1", "2 (Growth control rates of 20 to 40%)"],
  ["C#CCN1C(=O)COc2ccc(N3C(=O)CC(C(F)(F)F)CC3=O)cc21", "3 (Growth control rates of 40 to 70%)"],
  ["CC(C)OC(=O)c1cc(N2C(=O)CC(C(F)(F)F)C(C)C2=O)c(F)cc1Cl (stereo not drawn)", "3 (Growth control rates of 40 to 70%)"]
]}

Alright, here's another compound for you.
For this compound ( O=C1COc2cc(F)c(N3C(=O)CC(C(F)(F)F)CC3=O)cc2N1 ), measured herbicidal effect, C (Gossypium herbaceum) is 1 (Growth control rates of 5 to 20%)

###

// values below are reported herbicidal effect, R (Oryza sativa)
- Tested on: rice (Oryza sativa)
- Protocol summary: Herbicidal effect test by soil treatment
- Assay type: in vivo
- Applied conditions: crop plant, application amount 1.6 g/a, three weeks after spraying

{"columns": ["Compound", "herbicidal effect, R (Oryza sativa)"],
 "data": [
  ["O=C1COc2cc(F)c(N3C(=O)CC(C(F)(F)F)CC3=O)cc2N1 [1-25]", "1 (Growth control rates of 5 to 20%)"]
]}

rice (Oryza sativa) data for CC(C)OC(=O)c1cc(N2C(=O)CC(C(C)C)C(C)C2=O)c(F)cc1Cl (stereo not drawn) [1-5] ; its herbicidal effect, R (Oryza sativa): 1 (Growth control rates of 5 to 20%)

Item: O=C1COc2cc(F)c(N3C(=O)CC(C(F)(F)F)CC3=O)cc2N1Cc1ccccc1 [1-27] | System: rice (Oryza sativa) | herbicidal effect, R (Oryza sativa): 4 (Growth control rates of 70 to 90%)

###

- Test system: wheat (Triticum aestivum)
- Protocol summary: Herbicidal effect test by soil treatment
- Type: in vivo
- Applied conditions: crop plant, application amount 0.8 g/a, three weeks after spraying
Readout type: herbicidal effect, W (Triticum vulgare)

// solved cases for herbicidal effect, W (Triticum vulgare) follow
{"columns": ["Compound", "Readout type", "Obs value"],
 "data": [
  ["CC(C)OC(=O)c1cc(N2C(=O)CC(C(F)(F)F)C(C)C2=O)c(F)cc1Cl (centres unmarked) [1-3]", "herbicidal effect, W (Triticum vulgare)", "3 (Growth control rates of 40 to 70%)"],
  ["C#CCN1C(=O)COc2ccc(N3C(=O)CC(C(F)(F)F)CC3=O)cc21 [1-24]", "herbicidal effect, W (Triticum vulgare)", "1 (Growth control rates of 5 to 20%)"]
]}

Briefly, herbicidal effect, W (Triticum vulgare) measured for O=C1COc2cc(F)c(N3C(=O)CC(C(F)(F)F)CC3=O)cc2N1Cc1ccccc1 [1-27] : 4 (Growth control rates of 70 to 90%)
